tested on: Lefty1; assay: Lefty1 binders on small-molecule microarrays, primary screen, biochemical, small-molecule microarray, 635/667 nm fluorescence (AID 1139); conditions: small-molecule microarray binding, fluorescence 635/667; higher = more signal
Classify as follows. Reported composite z-score greater than or equal to 0.9: condition met. Reported composite z-score below: condition not met.

Solved cases (6 shown):
**Query** Reported composite z-score at or above 0.9? O=C1C2C=CC(C(O)Cc3ccccc3)N(n3cnnc3)C2C(=O)N1Cc1ccccc1 (stereo not drawn)
**Result** condition not met

**Query** Quick check, composite z-score >= 0.9? `CCOC(=O)C[C@H]1[C@H](OC(=O)c2cc3ccccc3oc2=O)[C@@H](NC(=O)c2ccccc2)c2cc(OCCCO)ccc2N1C(=O)c1ccc2ccccc2n1`
**Result** condition not met

**Query** Determine whether this molecule has composite z-score no lower than 0.9: `COC(=O)[C@@]1(Cc2ccc(OC)cc2)[C@H]2c3cc(C(=O)N(C)C)n(CCc4ccccn4)c3C[C@H]2CN1C(=O)c1ccccc1`
**Result** condition not met

**Query** Item `O=C1[C@@]23C=C(Br)[C@H](C[C@@H]2CCOC3)[C@@]12CO2` with composite z-score of 0.9 or above?
**Result** condition not met

**Query** Check the entry `CO[C@H]1O[C@H](CO)[C@@H](OC(=O)Nc2ccc(Oc3ccccc3)cc2)[C@H](OC(=O)Nc2ccc3c(c2)OCO3)[C@H]1OC(=O)Nc1ccc2c(c1)OCO2` : does composite z-score equal or exceed 0.9?
**Result** condition met

**Query** Please check the record `C=CCN1C(=O)[C@]2(O[C@H](CCn3cc([C@H](O)c4ccccc4)nn3)[C@@H]([Si](C)(C)c3ccc(OC)cc3)[C@@H]2C)c2cc(N3CCC3=O)ccc21` and state if its composite z-score is at or above 0.9.
**Result** condition met

Continuing:
**Query** Quick check: does `O=C1O[C@@H](c2ccccc2)[C@@H](c2ccccc2)N2[C@@H](c3ccccc3OCCO)[C@]3(C(=O)Nc4ccccc43)[C@@H](C(=O)Nc3nc4ccccc4s3)[C@H]12` have composite z-score greater than or equal to 0.9?
**Result** condition met

**Query** Kindly determine if composite z-score recorded for C=C(C)[C@@H]1CC=C(C(O)C2C=CC3C(=O)N(C)C(=O)C3N2Nc2ccccc2)CC1 (stereo partly drawn) is above or exactly 0.9.
**Result** condition met

---

assay: basal HepG2 mitochondrial membrane potential changes, profiling panel, cell-based, JC-1 fluorescence, 24 h, 100 nL compound (AID 1167); conditions: higher = more signal; further: test concentration not given here
Class assignment keyed on z-score, ranges band 1: < -2; band 2: ≥ -2 and < 0.04; band 3: ≥ 0.04

Answered cases to consult:
**Query** Could you place `CNS(=O)(=O)c1ccc(C)cc1` in its proper category? Many thanks.
**Result** band 3

**Query** Quick check: band for `NCCCCCCNC(=O)[C@@H]1C[C@@H]2C(=O)NCC(=O)N2[C@@H]1c1ccc(O)cc1`
**Result** band 2

**Query** Which band does `COCCOC(=O)N1C(=O)[C@@]2(c3cc(C#CC4(O)CCCCCC4)ccc31)[C@H](c1ccc(OCCO)cc1)N1[C@H](c3ccccc3)[C@H](c3ccccc3)OC(=O)[C@H]1[C@@H]2C(=O)N1CCN(c2ncccn2)CC1` fall in?
**Result** band 2

**Query** Which band does Cc1ccccc1C(O)C1C=CC2C(=O)N(c3ccccc3)C(=O)C2N1Nc1ccc(C(C)C)cc1 (stereo not drawn) fall in?
**Result** band 1

Next:
**Query** Class? Entry: `C=C[C@H](CO[Si](CC)(CC)CC)N(Cc1ccc(OC(C)=O)c(OC)c1)S(=O)(=O)c1ccc(Br)cc1`
**Result** band 2

**Query** In plain terms, what class is `COCCOC(=O)N1C(=O)[C@@]2(c3cc(C#CCNC(N)=O)ccc31)[C@H](C(=O)Nc1nc3ccccc3s1)[C@H]1C(=O)O[C@H](c3ccccc3)[C@H](c3ccccc3)N1[C@@H]2c1ccc(OCCO)cc1` ?
**Result** band 1

**Query** Class? Entry: O=C1NC(=O)C2C1C=CC(C(O)c1cccs1)N2Nc1ccc(Cl)cc1Cl (stereo not drawn)
**Result** band 1

**Query** Class? Entry: `C=CCOC(=O)[C@H]1[C@@H]2C(=O)O[C@@H](c3ccccc3)[C@@H](c3ccccc3)N2[C@@H](c2ccc(OCCOC(=O)[C@@H]3C[C@@H]4C(=O)N[C@@H](CC(C)C)C(=O)N4[C@@H]3c3ccc(O)cc3)cc2)[C@]12C(=O)Nc1ccccc12`
**Result** band 2

**Query** Textbook exercise: identify the category of the compound given here, `[N-]=[N+]=NCc1ccccc1[C@@H]1OC(c2ccc(OCCCO)cc2)=N[C@]1(Cc1ccccc1)C(N)=O` , according to its measured value.
**Result** band 3

**Query** Into which category would you place `CC(C)C(=C=CC[C@@H](O)c1ccc(OCCO)cc1)C[C@@H](O)c1ccccn1` ?
**Result** band 2

**Query** Kindly state the category for this compound: `CC(C)C[C@@H]1NC(=O)[C@@H]2C[C@H](C(=O)O)[C@H](c3cccc(OCCO)c3)N2C1=O`
**Result** band 3

**Query** Please indicate the class for `COCCCNC(=O)[C@]1(CCC(=O)OC(C)(C)C)N=C(c2ccc(OCCCO)cc2)O[C@@H]1c1ccccc1CN=[N+]=[N-]` based on its z-score.
**Result** band 2
